- TGT: T1, P-cadherin-ECD1-3-Fc protein (human P-cadherin-Fc) (human, UniProt P22223 108-440)
- T1 construct: Construct was expressed with signal peptide and pro-peptide (PACE co-transfected to process the propeptide); not shown: hinge and CH2 and CH3 domains of human IgG1
- METHOD_DESCRIPTION: phage scFv ELISA, coated P-cadherin-ECD1-3-Fc
MEASURE: % of binding of Clone #153 to human P-cadherin-Fc (%)
Express the result in % but write the number alone.

Input line: Report measured % of binding of Clone #153 to human P-cadherin-Fc; entry is anti-P-cadherin scFv 153 alanine-mutant H3.5-Ala (scFv, V domains shown, scFv on phage) VH: EVQLVQSGAEVKKPGASVKVSCKASGYTFTSYGISWVRQAPGQGLEWMGWISAYNGNTNYAQKLQGRVTMTTDTSTSTAYMELRSLRSDDTAVYYCATIDTAAAFGIWGQGTMVTVSS VL: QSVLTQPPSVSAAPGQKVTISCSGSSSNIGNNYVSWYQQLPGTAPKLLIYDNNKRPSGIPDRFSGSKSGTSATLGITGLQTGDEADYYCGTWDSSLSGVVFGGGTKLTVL
Output line: 58

Input line: State, in one line, measured % of binding of Clone #153 to human P-cadherin-Fc of anti-P-cadherin scFv 153 alanine-mutant H1.10-Ala (scFv, V domains shown, scFv on phage) VH: EVQLVQSGAEVKKPGASVKVSCKASGYTFTSYGIAWVRQAPGQGLEWMGWISAYNGNTNYAQKLQGRVTMTTDTSTSTAYMELRSLRSDDTAVYYCATIDTANAFGIWGQGTMVTVSS VL: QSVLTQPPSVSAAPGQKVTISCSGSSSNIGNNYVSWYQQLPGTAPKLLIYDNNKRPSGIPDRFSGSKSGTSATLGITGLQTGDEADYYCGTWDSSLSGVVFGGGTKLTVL
Output line: 161

Input line: Given the binder anti-P-cadherin scFv 153 alanine-mutant H2.9-Ala (scFv, V domains shown, scFv on phage) VH: EVQLVQSGAEVKKPGASVKVSCKASGYTFTSYGISWVRQAPGQGLEWMGWISAYNGNANYAQKLQGRVTMTTDTSTSTAYMELRSLRSDDTAVYYCATIDTANAFGIWGQGTMVTVSS VL: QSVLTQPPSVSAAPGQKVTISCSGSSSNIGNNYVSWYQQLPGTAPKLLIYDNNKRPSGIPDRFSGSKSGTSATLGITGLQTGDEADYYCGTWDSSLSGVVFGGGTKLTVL , write its reported % of binding of Clone #153 to human P-cadherin-Fc.
Output line: 154

Input line: Return reported % of binding of Clone #153 to human P-cadherin-Fc. Input binder: anti-P-cadherin scFv 153 alanine-mutant H1.1-Ala (scFv, V domains shown, scFv on phage) VH: EVQLVQSGAEVKKPGASVKVSCKASAYTFTSYGISWVRQAPGQGLEWMGWISAYNGNTNYAQKLQGRVTMTTDTSTSTAYMELRSLRSDDTAVYYCATIDTANAFGIWGQGTMVTVSS VL: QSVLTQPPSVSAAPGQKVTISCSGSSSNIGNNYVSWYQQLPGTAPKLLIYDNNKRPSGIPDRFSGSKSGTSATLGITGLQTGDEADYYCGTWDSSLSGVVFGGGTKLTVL
Output line: 135

Input line: Tell me its % of binding of Clone #153 to human P-cadherin-Fc given anti-P-cadherin scFv 153 alanine-mutant H2.17-Ala (scFv, V domains shown, scFv on phage) VH: EVQLVQSGAEVKKPGASVKVSCKASGYTFTSYGISWVRQAPGQGLEWMGWISAYNGNTNYAQKLQARVTMTTDTSTSTAYMELRSLRSDDTAVYYCATIDTANAFGIWGQGTMVTVSS VL: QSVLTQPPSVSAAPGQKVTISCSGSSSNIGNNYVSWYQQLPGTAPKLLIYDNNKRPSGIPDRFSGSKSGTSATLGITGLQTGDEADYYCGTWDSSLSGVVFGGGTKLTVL as the entry.
Output line: 162

Input line: Recall and state the measured % of binding of Clone #153 to human P-cadherin-Fc for anti-P-cadherin scFv 153 alanine-mutant H2.1-Ala (scFv, V domains shown, scFv on phage) VH: EVQLVQSGAEVKKPGASVKVSCKASGYTFTSYGISWVRQAPGQGLEWMGAISAYNGNTNYAQKLQGRVTMTTDTSTSTAYMELRSLRSDDTAVYYCATIDTANAFGIWGQGTMVTVSS VL: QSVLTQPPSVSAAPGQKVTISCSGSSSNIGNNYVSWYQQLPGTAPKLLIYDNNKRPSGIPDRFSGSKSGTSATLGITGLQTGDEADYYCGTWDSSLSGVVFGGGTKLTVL .
Output line: 103

Input line: Return % of binding of Clone #153 to human P-cadherin-Fc (reported value) for this binder: anti-P-cadherin scFv 153 alanine-mutant H2.16-Ala (scFv, V domains shown, scFv on phage) VH: EVQLVQSGAEVKKPGASVKVSCKASGYTFTSYGISWVRQAPGQGLEWMGWISAYNGNTNYAQKLAGRVTMTTDTSTSTAYMELRSLRSDDTAVYYCATIDTANAFGIWGQGTMVTVSS VL: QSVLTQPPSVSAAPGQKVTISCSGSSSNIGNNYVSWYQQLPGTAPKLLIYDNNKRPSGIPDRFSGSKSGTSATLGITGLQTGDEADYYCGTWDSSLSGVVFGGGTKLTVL
Output line: 68

Reference source for all entries: patent US20160002357A1
